tested on: Pseudomonas aeruginosa PAO1; assay: Inhibition of beta-lactamase activity in Pseudomonas aeruginosa PAO1 PAHUAC-27(ST-22) assessed as MIC for cefpodoxime antibacterial activity at 16 mg/L by broth microdilution method
Documented MIC across a set of compounds

COMPOUND: C[C@]1(COC(=O)Cc2ccc(O)c(O)c2)[C@H](C(=O)O)N2C(=O)/C(=C/c3ccc(F)cn3)[C@H]2S1(=O)=O
MIC (µg/mL): 2
//
COMPOUND: NC(=O)[C@@H]1CC[C@@H]2CN1C(=O)N2OS(=O)(=O)O [AVIBACTAM SODIUM]
MIC (µg/mL): 1
//
COMPOUND: C[C@]1(COC(=O)Cc2ccc(O)c(O)c2)[C@H](C(=O)O)N2C(=O)/C(=C/c3ccccn3)[C@H]2S1(=O)=O
MIC (µg/mL): 1
//
COMPOUND: C[C@]1(COC(=O)Cc2ccc(O)c(O)c2)[C@H](C(=O)O)N2C(=O)/C(=C/c3cc(Br)ccn3)[C@H]2S1(=O)=O
MIC (µg/mL): 1

---

assay: Inhibition beta lactamase PDC-1 in Pseudomonas aeruginosa PAO1 assessed as apparent inhibition constant using nitrocefin as substrate measured by 96 well microtitre plate; conditions: read-out: Ki(app)
Documented Ki across a set of molecules

MOLECULE: C[C@]1(COC(=O)Cc2ccc(O)c(O)c2)[C@H](C(=O)O)N2C(=O)/C(=C/c3cc(Br)ccn3)[C@H]2S1(=O)=O
UNITS OF MEASURE: nM
Ki: 14
//
MOLECULE: C[C@]1(COC(=O)Cc2ccc(O)c(O)c2)[C@H](C(=O)O)N2C(=O)/C(=C/c3ccc(F)cn3)[C@H]2S1(=O)=O
UNITS OF MEASURE: nM
Ki: 110
//
MOLECULE: C[C@]1(COC(=O)Cc2ccc(O)c(O)c2)[C@H](C(=O)O)N2C(=O)/C(=C/c3ccccn3)[C@H]2S1(=O)=O
UNITS OF MEASURE: nM
Ki: 53
//
MOLECULE: NC(=O)[C@@H]1CC[C@@H]2CN1C(=O)N2OS(=O)(=O)O [AVIBACTAM SODIUM]
UNITS OF MEASURE: nM
Ki: 990

---

test system: Pseudomonas aeruginosa PAO1; assay: Inhibition of beta-lactamase activity in Pseudomonas aeruginosa PAO1 53/22-113 (ST-244) assessed as MIC for cefpodoxime antibacterial activity at 4 mg/L by broth microdilution method
Documented MIC across a set of compounds
PROPERTY LABEL: MIC (mg/L)

COMPOUND: NC(=O)[C@@H]1CC[C@@H]2CN1C(=O)N2OS(=O)(=O)O [AVIBACTAM SODIUM]
TESTED TARGET: Pseudomonas aeruginosa PAO1
PROPERTY LABEL: MIC
UNITS OF MEASURE: mg/L
MEASURED RESULT: 4

COMPOUND: C[C@]1(COC(=O)Cc2ccc(O)c(O)c2)[C@H](C(=O)O)N2C(=O)/C(=C/c3ccc(F)cn3)[C@H]2S1(=O)=O
TESTED TARGET: Pseudomonas aeruginosa PAO1
PROPERTY LABEL: MIC
UNITS OF MEASURE: mg/L
MEASURED RESULT: 8

COMPOUND: C[C@]1(COC(=O)Cc2ccc(O)c(O)c2)[C@H](C(=O)O)N2C(=O)/C(=C/c3cc(Br)ccn3)[C@H]2S1(=O)=O
TESTED TARGET: Pseudomonas aeruginosa PAO1
PROPERTY LABEL: MIC
UNITS OF MEASURE: mg/L
MEASURED RESULT: 4

COMPOUND: C[C@]1(COC(=O)Cc2ccc(O)c(O)c2)[C@H](C(=O)O)N2C(=O)/C(=C/c3ccccn3)[C@H]2S1(=O)=O
TESTED TARGET: Pseudomonas aeruginosa PAO1
PROPERTY LABEL: MIC
UNITS OF MEASURE: mg/L
MEASURED RESULT: 8

---

test system: Pseudomonas aeruginosa PAO1; assay: Inhibition of beta-lactamase activity in Pseudomonas aeruginosa PAO1 PAHUAC-27(ST-22) assessed as MIC for cefpodoxime antibacterial activity at 4 mg/L by broth microdilution method
Documented MIC across a set of compounds
PROPERTY LABEL: MIC (µg/mL)

COMPOUND: C[C@]1(COC(=O)Cc2ccc(O)c(O)c2)[C@H](C(=O)O)N2C(=O)/C(=C/c3cc(Br)ccn3)[C@H]2S1(=O)=O
MEASURED RESULT: 1
--
COMPOUND: C[C@]1(COC(=O)Cc2ccc(O)c(O)c2)[C@H](C(=O)O)N2C(=O)/C(=C/c3ccc(F)cn3)[C@H]2S1(=O)=O
MEASURED RESULT: 4
--
COMPOUND: C[C@]1(COC(=O)Cc2ccc(O)c(O)c2)[C@H](C(=O)O)N2C(=O)/C(=C/c3ccccn3)[C@H]2S1(=O)=O
MEASURED RESULT: 2
--
COMPOUND: NC(=O)[C@@H]1CC[C@@H]2CN1C(=O)N2OS(=O)(=O)O [AVIBACTAM SODIUM]
MEASURED RESULT: 1

---

Documented MIC across a set of molecules
tested on: Pseudomonas aeruginosa PAO1; test: Inhibition of beta-lactamase activity in Pseudomonas aeruginosa PAO1 23/14-053 (ST-309) assessed as MIC for cefpodoxime antibacterial activity at 4 mg/L by broth microdilution method

MOLECULE: C[C@]1(COC(=O)Cc2ccc(O)c(O)c2)[C@H](C(=O)O)N2C(=O)/C(=C/c3ccc(F)cn3)[C@H]2S1(=O)=O
TESTED TARGET: Pseudomonas aeruginosa PAO1
UNITS OF MEASURE: µg/mL
MIC: 2
//
MOLECULE: NC(=O)[C@@H]1CC[C@@H]2CN1C(=O)N2OS(=O)(=O)O [AVIBACTAM SODIUM]
TESTED TARGET: Pseudomonas aeruginosa PAO1
UNITS OF MEASURE: µg/mL
MIC: 1
//
MOLECULE: C[C@]1(COC(=O)Cc2ccc(O)c(O)c2)[C@H](C(=O)O)N2C(=O)/C(=C/c3ccccn3)[C@H]2S1(=O)=O
TESTED TARGET: Pseudomonas aeruginosa PAO1
UNITS OF MEASURE: µg/mL
MIC: 1
//
MOLECULE: C[C@]1(COC(=O)Cc2ccc(O)c(O)c2)[C@H](C(=O)O)N2C(=O)/C(=C/c3cc(Br)ccn3)[C@H]2S1(=O)=O
TESTED TARGET: Pseudomonas aeruginosa PAO1
UNITS OF MEASURE: µg/mL
MIC: 2

---

tested on: Pseudomonas aeruginosa PAO1; assay: Inhibition of beta-lactamase activity in Pseudomonas aeruginosa PAO1 23/14-053 (ST-309) assessed as MIC for cefpodoxime antibacterial activity at 16 mg/L by broth microdilution method
Documented MIC across a set of compounds
PROPERTY LABEL: MIC

COMPOUND: C[C@]1(COC(=O)Cc2ccc(O)c(O)c2)[C@H](C(=O)O)N2C(=O)/C(=C/c3ccccn3)[C@H]2S1(=O)=O
PROPERTY LABEL: MIC
MEASURED RESULT: 1 µg/mL
--
COMPOUND: C[C@]1(COC(=O)Cc2ccc(O)c(O)c2)[C@H](C(=O)O)N2C(=O)/C(=C/c3cc(Br)ccn3)[C@H]2S1(=O)=O
PROPERTY LABEL: MIC
MEASURED RESULT: 2 µg/mL
--
COMPOUND: C[C@]1(COC(=O)Cc2ccc(O)c(O)c2)[C@H](C(=O)O)N2C(=O)/C(=C/c3ccc(F)cn3)[C@H]2S1(=O)=O
PROPERTY LABEL: MIC
MEASURED RESULT: 2 µg/mL
--
COMPOUND: NC(=O)[C@@H]1CC[C@@H]2CN1C(=O)N2OS(=O)(=O)O [AVIBACTAM SODIUM]
PROPERTY LABEL: MIC
MEASURED RESULT: 1 µg/mL

---

test system: Pseudomonas aeruginosa PAO1; assay: Inhibition beta lactamase PDC-1 in Pseudomonas aeruginosa PAO1 assessed half life of nitrocefin substrate measured by 96 well microtitre plate assay

MOLECULE: C[C@]1(COC(=O)Cc2ccc(O)c(O)c2)[C@H](C(=O)O)N2C(=O)/C(=C/c3ccccn3)[C@H]2S1(=O)=O
T1/2: 1.37 h
--
MOLECULE: C[C@]1(COC(=O)Cc2ccc(O)c(O)c2)[C@H](C(=O)O)N2C(=O)/C(=C/c3cc(Br)ccn3)[C@H]2S1(=O)=O
T1/2: 1.75 h
--
MOLECULE: C[C@]1(COC(=O)Cc2ccc(O)c(O)c2)[C@H](C(=O)O)N2C(=O)/C(=C/c3ccc(F)cn3)[C@H]2S1(=O)=O
T1/2: 1.3 h
--
MOLECULE: NC(=O)[C@@H]1CC[C@@H]2CN1C(=O)N2OS(=O)(=O)O [AVIBACTAM SODIUM]
T1/2: 0.467 h
